# TESTED_SYSTEM: T1, Human EphA2 (ephrin receptor A2) (human, UniProt P29317 24-976)
# T1 construct: Endogenous protein in frozen human tumor tissue and tumor adjacent tissue, not a recombinant construct
# T1 sequence (P29317 24-976 limits assumed): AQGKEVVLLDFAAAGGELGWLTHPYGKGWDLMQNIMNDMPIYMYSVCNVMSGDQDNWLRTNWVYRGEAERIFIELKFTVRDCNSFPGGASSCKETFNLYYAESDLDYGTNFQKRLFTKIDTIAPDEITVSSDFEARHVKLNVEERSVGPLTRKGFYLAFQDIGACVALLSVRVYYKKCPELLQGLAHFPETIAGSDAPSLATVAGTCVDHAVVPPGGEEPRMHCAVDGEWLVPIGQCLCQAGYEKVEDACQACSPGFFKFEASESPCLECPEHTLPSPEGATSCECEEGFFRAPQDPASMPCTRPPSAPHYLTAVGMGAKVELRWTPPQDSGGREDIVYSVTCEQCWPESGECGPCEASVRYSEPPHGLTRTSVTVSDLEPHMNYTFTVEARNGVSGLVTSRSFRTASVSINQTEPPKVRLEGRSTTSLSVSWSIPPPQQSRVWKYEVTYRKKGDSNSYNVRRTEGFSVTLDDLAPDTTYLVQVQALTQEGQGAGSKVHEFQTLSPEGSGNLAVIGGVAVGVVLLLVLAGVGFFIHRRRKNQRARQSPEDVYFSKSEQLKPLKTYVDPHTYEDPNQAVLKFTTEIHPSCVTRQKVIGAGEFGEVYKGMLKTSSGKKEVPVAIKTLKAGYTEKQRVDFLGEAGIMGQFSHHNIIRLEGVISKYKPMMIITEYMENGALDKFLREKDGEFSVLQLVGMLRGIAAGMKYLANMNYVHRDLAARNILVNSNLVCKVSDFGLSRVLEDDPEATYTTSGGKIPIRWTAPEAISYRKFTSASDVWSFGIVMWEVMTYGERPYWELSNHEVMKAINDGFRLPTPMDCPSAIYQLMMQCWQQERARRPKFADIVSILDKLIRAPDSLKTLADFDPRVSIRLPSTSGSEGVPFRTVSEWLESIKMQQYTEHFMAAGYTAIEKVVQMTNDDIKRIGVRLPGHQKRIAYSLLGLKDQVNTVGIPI
# PROTOCOL_NOTES: IHC/IF score on frozen human tumor tissue, URO
QUANTITY_MEASURED: IHC score
// no unit, no text: just the number

// sample AB-009815 (antibody, mouse IgG2a, V domains shown) VH: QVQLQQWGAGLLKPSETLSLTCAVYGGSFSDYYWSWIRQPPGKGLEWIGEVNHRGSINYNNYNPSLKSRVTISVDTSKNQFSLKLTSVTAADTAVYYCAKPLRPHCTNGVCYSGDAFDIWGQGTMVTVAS VL: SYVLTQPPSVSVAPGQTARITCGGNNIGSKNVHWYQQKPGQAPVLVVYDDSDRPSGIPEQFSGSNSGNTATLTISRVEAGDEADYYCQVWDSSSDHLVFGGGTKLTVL , its IHC score was 1
